Origin of the recorded values: ChEMBL document CHEMBL3822374

tested on: RAW264.7; experiment: Antiinflammatory activity against LPS-stimulated mouse RAW264.7 cells assessed as PGE2 levels at 5 umol/L by ELISA (reference value: 33.2 +/- 2.33 pg/mL); type: functional
property: Activity (pg/mL)
Give the value in pg/mL but do not write pg/mL after it.

I would be grateful if you could share the reported Activity for `Oc1ccc(/C=C/c2cc(O)cc(O)c2)cc1` .
31.43

Another compound: `O=C(O)c1cc(O)c(O)c(O)c1`
33.06

Another compound: `O=c1c(O)c(-c2cc(O)c(O)c(O)c2)oc2cc(O)cc(O)c12`
27.23

Another compound: `O=c1c(O)cccc2cc(O)c(O)c(O)c12`
28.76

---

system: RAW264.7; experiment: Antiinflammatory activity against LPS-stimulated mouse RAW264.7 cells assessed as TNFalpha levels at 5 umol/L by ELISA (reference value: 183.21 +/- 5.36 pg/mL); type: functional
property: Activity

I would be grateful if you could share the reported Activity for `O=C(O)c1cc(O)c(O)c(O)c1` .
103.08 pg/mL

Another molecule: `O=c1c(O)c(-c2cc(O)c(O)c(O)c2)oc2cc(O)cc(O)c12`
36.23 pg/mL

Another molecule: `Oc1ccc(/C=C/c2cc(O)cc(O)c2)cc1`
109.42 pg/mL

Another molecule: `O=c1c(O)cccc2cc(O)c(O)c(O)c12`
52.85 pg/mL

---

For each of the molecules below, state its Activity.
tested on: RAW264.7; assay: Antiinflammatory activity against LPS-stimulated mouse RAW264.7 cells assessed as TNFalpha levels at 50 umol/L by ELISA (reference value: 183.21 +/- 5.36 pg/mL); format: functional
Mention the unit after the number when you answer.

I would be grateful if you could share the reported Activity for `O=C(O)c1cc(O)c(O)c(O)c1` .
62.59 pg/mL

Another molecule: `O=c1c(O)cccc2cc(O)c(O)c(O)c12`
42.44 pg/mL

Another molecule: `Oc1ccc(/C=C/c2cc(O)cc(O)c2)cc1`
74.91 pg/mL

Another molecule: `O=c1c(O)c(-c2cc(O)c(O)c(O)c2)oc2cc(O)cc(O)c12`
35.44 pg/mL

---

For each of the molecules below, state its Activity.
system: RAW264.7; test: Antiinflammatory activity against LPS-stimulated mouse RAW264.7 cells assessed as COX2 levels at 50 umol/L by ELISA (reference value: 159.64 +/- 13.56 pg/mL); format: functional
Mention the unit after the number when you answer.

I would be grateful if you could share the reported Activity for `O=C(O)c1cc(O)c(O)c(O)c1` .
122.67 pg/mL

Another molecule: `O=c1c(O)cccc2cc(O)c(O)c(O)c12`
67.23 pg/mL

Another molecule: `O=c1c(O)c(-c2cc(O)c(O)c(O)c2)oc2cc(O)cc(O)c12`
118.25 pg/mL

Another molecule: `Oc1ccc(/C=C/c2cc(O)cc(O)c2)cc1`
83.48 pg/mL

---

test system: RAW264.7; test: Cytotoxicity against LPS-stimulated mouse RAW264.7 cells assessed as reduction in cell viability at 50 umol/L after 24 hrs by MTT assay; assay type: cell-based; details: raw264.7, 24 h, 50 µM

entry-smiles | Activity
O=C1O[C@@H]2[C@@H](O)[C@H](O)[C@@H](CO)O[C@H]2c2c1cc(O)c(O)c2O | Non-toxic
COc1c(O)cc2c(c1O)[C@@H]1O[C@H](COC(=O)c3cc(O)c(O)c(O)c3)[C@@H](O)[C@H](O)[C@H]1OC2=O | Non-toxic
O=c1c(O)cccc2cc(O)c(O)c(O)c12 | Non-toxic

---

For each of the molecules below, state its Activity.
experiment: Inhibition of NFkappaB signaling pathway in LPS-stimulated mouse RAW264.7 cells assessed as protein levels at 5 umol/L by ELISA (reference value: 1.23 +/- 0.06 pg/mL); format: cell-based
Give the value in pg/mL but do not write pg/mL after it.

I would be grateful if you could share the reported Activity for Oc1ccc(/C=C/c2cc(O)cc(O)c2)cc1 [RESVERATROL] .
0.57

Another molecule: O=c1c(O)cccc2cc(O)c(O)c(O)c12 [PURPUROGALLIN]
0.32

Another molecule: O=C(O)c1cc(O)c(O)c(O)c1 [GALLIC ACID]
0.76

Another molecule: O=c1c(O)c(-c2cc(O)c(O)c(O)c2)oc2cc(O)cc(O)c12 [MYRICETIN]
0.453

---

For each of the compounds below, state its Activity.
test system: RAW264.7; assay: Antiinflammatory activity against LPS-stimulated mouse RAW264.7 cells assessed as iNOS levels at 50 umol/L by ELISA (reference value: 31.63 +/- 3.26 U/mL); assay type: functional
Give the value in U/ml but do not write U/ml after it.

Report Activity for O=c1c(O)cccc2cc(O)c(O)c(O)c12 [PURPUROGALLIN] tested on RAW264.7.
21.64

Another compound: O=c1c(O)c(-c2cc(O)c(O)c(O)c2)oc2cc(O)cc(O)c12 [MYRICETIN]
17.44

Another compound: O=C(O)c1cc(O)c(O)c(O)c1 [GALLIC ACID]
20.57

Another compound: Oc1ccc(/C=C/c2cc(O)cc(O)c2)cc1 [RESVERATROL]
19.26

---

tested on: RAW264.7; assay: Antiinflammatory activity against LPS-stimulated mouse RAW264.7 cells assessed as NO levels at 25 umol/L by ELISA (reference value: 0.95 +/- 0.052 umol/mL); assay type: functional
property: Activity

I would be grateful if you could share the reported Activity for `O=c1c(O)c(-c2cc(O)c(O)c(O)c2)oc2cc(O)cc(O)c12` .
0.24 µmol/mL

Another compound: `O=c1c(O)cccc2cc(O)c(O)c(O)c12`
0.42 µmol/mL

Another compound: `O=C(O)c1cc(O)c(O)c(O)c1`
0.39 µmol/mL

Another compound: `Oc1ccc(/C=C/c2cc(O)cc(O)c2)cc1`
0.082 µmol/mL

---

system: RAW264.7; experiment: Antiinflammatory activity against LPS-stimulated mouse RAW264.7 cells assessed as IL1beta levels at 5 umol/L by ELISA (reference value: 8.70 +/- 0.365 pg/mL); type: functional
property: Activity (pg/mL)
Give the value in pg/mL but do not write pg/mL after it.

I would be grateful if you could share the reported Activity for O=c1c(O)cccc2cc(O)c(O)c(O)c12 [PURPUROGALLIN] .
6.7

Another compound: O=c1c(O)c(-c2cc(O)c(O)c(O)c2)oc2cc(O)cc(O)c12 [MYRICETIN]
3.44

Another compound: O=C(O)c1cc(O)c(O)c(O)c1 [GALLIC ACID]
4.33

Another compound: Oc1ccc(/C=C/c2cc(O)cc(O)c2)cc1 [RESVERATROL]
5.26
